Test target: T1, CD19 (UniProt P15391 20-556, limits assumed)
T1 sequence (looked up): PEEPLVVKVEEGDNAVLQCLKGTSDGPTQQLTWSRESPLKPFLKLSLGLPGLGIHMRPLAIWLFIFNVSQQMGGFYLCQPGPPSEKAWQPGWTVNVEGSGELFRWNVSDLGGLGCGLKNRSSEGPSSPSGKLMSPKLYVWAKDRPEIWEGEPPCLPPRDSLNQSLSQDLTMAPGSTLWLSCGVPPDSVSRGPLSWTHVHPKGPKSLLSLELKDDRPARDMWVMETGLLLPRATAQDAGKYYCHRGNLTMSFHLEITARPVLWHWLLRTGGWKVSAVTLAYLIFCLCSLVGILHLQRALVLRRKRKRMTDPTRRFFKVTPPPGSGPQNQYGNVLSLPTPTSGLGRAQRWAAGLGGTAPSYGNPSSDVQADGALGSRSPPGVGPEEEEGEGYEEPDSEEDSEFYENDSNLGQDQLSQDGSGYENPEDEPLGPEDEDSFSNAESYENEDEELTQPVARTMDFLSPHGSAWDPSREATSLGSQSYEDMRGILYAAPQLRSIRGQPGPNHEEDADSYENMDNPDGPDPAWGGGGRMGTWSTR
Experiment summary: cell-based or functional assay

{"columns": ["Binder", "IC50, in vitro cytotoxicity, RL cells"],
 "data": [
  ["hBU12-18 (antibody, V domains shown, antibody carries drug-linker 18 (MDpr-Lys(PEG8)-glucuronide-MMAE), 8 drugs per antibody) VH: QVQLQESGPGLVKPSQTLSLTCTVSGGSISTSGMGVGWIRQHPGKGLEWIGHIWWDDDKRYNPALKSRVTISVDTSKNQFSLKLSSVTAADTAVYYCARMELWSYYFDYWGQGTLVTVSS VL: EIVLTQSPATLSLSPGERATLSCSASSSVSYMHWYQQKPGQAPRLLIYDTSKLASGIPARFSGSGSGTDFTLTISSLEPEDVAVYYCFQGSVYPFTFGQGTKLEIKR", "> 1 µg/mL"],
  ["hBU12-42 (antibody, V domains shown, antibody carries drug-linker 42 (MDpr-Lys(PEG4)-glucuronide-MMAE), 8 drugs per antibody) VH: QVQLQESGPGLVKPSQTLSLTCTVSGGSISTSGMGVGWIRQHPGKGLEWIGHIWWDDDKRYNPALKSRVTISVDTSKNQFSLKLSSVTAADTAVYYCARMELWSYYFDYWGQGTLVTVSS VL: EIVLTQSPATLSLSPGERATLSCSASSSVSYMHWYQQKPGQAPRLLIYDTSKLASGIPARFSGSGSGTDFTLTISSLEPEDVAVYYCFQGSVYPFTFGQGTKLEIKR", "> 1 µg/mL"],
  ["hBU12-19 (antibody, V domains shown, antibody carries drug-linker 19 (MDpr-Lys(PEG4[PEG4]3)-glucuronide-MMAE, branched PEG), 8 drugs per antibody) VH: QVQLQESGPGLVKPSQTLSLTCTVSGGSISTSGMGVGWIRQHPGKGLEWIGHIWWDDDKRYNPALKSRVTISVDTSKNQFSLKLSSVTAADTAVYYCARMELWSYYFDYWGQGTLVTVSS VL: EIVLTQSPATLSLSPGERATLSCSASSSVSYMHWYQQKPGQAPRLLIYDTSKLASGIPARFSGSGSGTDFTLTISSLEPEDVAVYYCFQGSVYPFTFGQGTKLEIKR", "> 1 µg/mL"]
]}
